biological target: human recombinant PDE10A (Homo sapiens); construct: made in house; host or cells: SF21 insect cells (baculovirus); assay: Inhibition of human recombinant PDE10A ([3H]-cAMP SPA, Method B); assay type: biochemical; conditions: read-out: PDE10 inhibition IC50 [nM] PDE10A human
# IC50 annotations

Some solved entries appear below for comparison.
[
  {
    "compound": "Cc1nc(-c2ccccc2Cl)n2c1c(C)nc1cc(OCc3ccc4ccccc4n3)ccc12 [Example 58]",
    "IC50": "≤ 10 nM"
  },
  {
    "compound": "Cc1nc(-c2ccccc2Cl)n2c1c(C)nc1ccc(Cl)cc12 [Example 67]",
    "IC50": "≤ 10 nM"
  },
  {
    "compound": "Cc1nc(F)ccc1-c1nc(C)c2c(C)nc3ccc(OC(F)(F)F)cc3n12 [Example 117]",
    "IC50": "10 to 100 nM"
  },
  {
    "compound": "COc1ccc2nc(N)c3c(C)nc(C4CCCCC4)n3c2c1 [Example 38]",
    "IC50": "10 to 100 nM"
  },
  {
    "compound": "Cc1nc(-c2cc(C(N)=O)ccc2F)n2c1c(C)nc1ccc(F)cc12 [Example 137]",
    "IC50": "10 to 100 nM"
  }
]

Below: the item to evaluate.
Q: Sample CCCc1nc(C)c2c(C)nc3ccc(OC)cc3n12 [Example 16] — what was its IC50?
A: 10 to 100 nM

* * *

# IC50 annotations
target: PDE10 from pig striatum (Sus scrofa, UniProt A0A287B941); experiment: Inhibition of PDE10 from pig striatum ([3H]-cAMP SPA, Methods A and B); format: biochemical; conditions: PDE10 pig

Some solved entries appear below for comparison.
[
  {
    "compound": "Cc1nc(-c2ccccc2Cl)n2c1c(C)nc1cc(OCc3cccc([N+](=O)[O-])c3)ccc12",
    "test target": "PDE10 from pig striatum (Sus scrofa, UniProt A0A287B941)",
    "measured value": "≤ 10 nM"
  },
  {
    "compound": "CCCc1nc(C)c2c(N)nc3ccccc3n12",
    "test target": "PDE10 from pig striatum (Sus scrofa, UniProt A0A287B941)",
    "measured value": "≥ 100 nM"
  },
  {
    "compound": "COc1cc(OC)c2nc(C)c3c(C)nc(C4CCCCC4)n3c2c1",
    "test target": "PDE10 from pig striatum (Sus scrofa, UniProt A0A287B941)",
    "measured value": "≤ 10 nM"
  },
  {
    "compound": "COc1ccccc1-c1nc(C)c2c(C)nc3ccc(F)cc3n12",
    "test target": "PDE10 from pig striatum (Sus scrofa, UniProt A0A287B941)",
    "measured value": "10 to 100 nM"
  },
  {
    "compound": "Cc1cccc(-c2nc(C)c3c(C)nc4ccc(F)cc4n23)c1",
    "test target": "PDE10 from pig striatum (Sus scrofa, UniProt A0A287B941)",
    "measured value": "10 to 100 nM"
  },
  {
    "compound": "COc1cc(OC)c2nc(C)c3c(C)nc(-c4ccccc4Cl)n3c2c1",
    "test target": "PDE10 from pig striatum (Sus scrofa, UniProt A0A287B941)",
    "measured value": "≤ 10 nM"
  }
]

Q: Enter reported IC50 observed with PDE10 from pig striatum (Sus scrofa, UniProt A0A287B941) for Cc1nc(-c2cc(Cl)cc(Cl)c2)n2c1c(C)nc1ccc(F)cc12
A: 10 to 100 nM

Q: Enter reported IC50 observed with PDE10 from pig striatum (Sus scrofa, UniProt A0A287B941) for CCCc1nc(C)c2c(Cl)nc3ccc(N4CCCCC4)cc3n12 [Intermediate B10]
A: 10 to 100 nM

* * *

Biological target: human recombinant PDE10A (Homo sapiens, UniProt Q9Y233)
Construct: made in house; host or cells: SF21 insect cells (baculovirus)
Sequence (Q9Y233 1-779 isoform Q9Y233-1): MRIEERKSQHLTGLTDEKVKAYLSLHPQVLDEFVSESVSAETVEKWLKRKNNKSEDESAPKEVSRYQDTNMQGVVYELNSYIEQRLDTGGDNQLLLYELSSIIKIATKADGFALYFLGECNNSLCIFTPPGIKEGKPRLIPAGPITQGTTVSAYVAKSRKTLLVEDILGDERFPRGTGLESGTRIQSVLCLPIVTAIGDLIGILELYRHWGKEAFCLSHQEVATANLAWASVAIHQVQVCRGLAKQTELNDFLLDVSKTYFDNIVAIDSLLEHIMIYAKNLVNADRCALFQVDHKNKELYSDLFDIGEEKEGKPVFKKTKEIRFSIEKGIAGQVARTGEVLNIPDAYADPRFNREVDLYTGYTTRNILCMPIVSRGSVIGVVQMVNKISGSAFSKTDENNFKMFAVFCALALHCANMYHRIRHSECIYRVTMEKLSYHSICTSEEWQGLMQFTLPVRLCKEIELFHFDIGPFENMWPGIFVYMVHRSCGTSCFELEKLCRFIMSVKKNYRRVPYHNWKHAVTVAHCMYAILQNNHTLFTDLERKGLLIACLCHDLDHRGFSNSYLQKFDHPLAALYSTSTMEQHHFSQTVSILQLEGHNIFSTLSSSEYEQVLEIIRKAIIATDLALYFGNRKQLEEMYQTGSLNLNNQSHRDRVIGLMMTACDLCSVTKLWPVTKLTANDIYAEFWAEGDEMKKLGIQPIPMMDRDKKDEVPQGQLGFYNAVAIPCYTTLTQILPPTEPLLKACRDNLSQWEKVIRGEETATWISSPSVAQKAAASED
Assay: Inhibition of human recombinant PDE10A ([3H]-cAMP SPA, Method B)
Type: biochemical
Conditions: read-out: PDE10 inhibition IC50 [nM] PDE10A human
Experimental: The gene was than inserted into a baculovirus vector, ligated with the baculovirus DNA. The enzyme-protein was expressed in SF21-cells. The enzyme was isolated from these cells by harvesting the cells by a centrifugation at 200 g to collect the cells. […] PDE10 activity was determined in a one step procedure in microtiterplates. […] One hour later the mixture was measured in a liquid scintillation counter for microtiterplates (Microbeta Trilux). […]
property measured: IC50

Some solved entries appear below for comparison.
[
  {
    "molecule": "COc1cc2nc(C)c3c(C)nc(-c4c(C)nn(C)c4C)n3c2cc1Cl [Example 131]",
    "IC50": "≤ 10 nM"
  },
  {
    "molecule": "COc1cc2nc(C)c3c(C)nc(-c4cccnc4C)n3c2cc1Cl [Example 130]",
    "IC50": "≤ 10 nM"
  },
  {
    "molecule": "CCOc1cc2nc(C)c3c(C)nc(-c4ccccc4C)n3c2cc1Cl [Example 132]",
    "IC50": "10 to 100 nM"
  }
]

Q: Sample Cc1noc(C)c1-c1nc(C)c2c(C)nc3ccccc3n12 [Example 100] — what was its IC50?
A: ≥ 100 nM

Q: Sample Cc1nc(-c2ccncc2)n2c1c(C)nc1ccc(F)cc12 [Example 143] — what was its IC50?
A: ≥ 100 nM

Q: Sample Cc1nc(-c2ccccc2Cl)n2c1c(C)nc1cc(OCc3cccc([N+](=O)[O-])c3)ccc12 [Example 59] — what was its IC50?
A: 10 to 100 nM

Q: Sample COc1ccc2nc(C)c3c(C)nc(C4CCCCC4)n3c2c1 [Example 43] — what was its IC50?
A: 10 to 100 nM

Q: Sample COc1ccc2nc(C)c3c(C)nc(-c4cc(Cl)ccc4C)n3c2c1 [Example 107] — what was its IC50?
A: ≤ 10 nM

Q: Sample COc1cc(F)c2nc(C)c3c(C)nc(-c4ccccc4Cl)n3c2c1 [Example 77] — what was its IC50?
A: ≤ 10 nM

Q: Sample Cc1nc(-c2cccc(C(N)=O)c2)n2c1c(C)nc1ccc(Cl)cc12 [Example 64] — what was its IC50?
A: ≤ 10 nM

* * *

molecular target: human recombinant PDE10A (Homo sapiens, UniProt Q9Y233); construct: made in house; host or cells: SF21 insect cells (baculovirus); assay: Inhibition of human recombinant PDE10A ([3H]-cAMP SPA, Method B); type: biochemical; conditions: read-out: PDE10 inhibition IC50 [nM] PDE10A human
property measured: IC50

Some solved entries appear below for comparison.
[
  {
    "mol smiles": "Cc1ccccc1-c1nc(C)c2c(C)nc3c(F)cc(F)cc3n12",
    "IC50": "≤ 10 nM"
  },
  {
    "mol smiles": "Cc1ccccc1-c1nc(C)c2c(C)nc3ccc(C(F)(F)F)cc3n12",
    "IC50": "10 to 100 nM"
  },
  {
    "mol smiles": "Cc1nc(F)ccc1-c1nc(C)c2c(C)nc3ccccc3n12",
    "IC50": "10 to 100 nM"
  },
  {
    "mol smiles": "Cc1nc(-c2ccccc2Cl)n2c1c(C)nc1ccc(F)cc12",
    "IC50": "10 to 100 nM"
  },
  {
    "mol smiles": "COc1ccc2nc(C)c3c(C)nc(-c4ccc(F)cc4C)n3c2c1",
    "IC50": "10 to 100 nM"
  },
  {
    "mol smiles": "CCCc1nc(C)c2c(C)nc3cc(OCc4ccc5ccccc5n4)ccc3n12",
    "IC50": "≤ 10 nM"
  }
]

Q: Sample COc1cc(F)c2nc(C)c3c(C)nc(-c4ccc(F)c(C(N)=O)c4)n3c2c1 — what was its IC50?
A: ≤ 10 nM

Q: Sample COc1ccc2nc(C)c3c(C)nc(-c4ccc(Cl)cc4C(F)(F)F)n3c2c1 — what was its IC50?
A: 10 to 100 nM

Q: Sample COc1cc(F)c2nc(C)c3c(C)nc(-c4ccc(F)cc4Cl)n3c2c1 — what was its IC50?
A: ≤ 10 nM

Q: Sample COc1ccc2nc(C)c3c(C)nc(-c4ccc(F)nc4C)n3c2c1 — what was its IC50?
A: 10 to 100 nM

* * *

# IC50 annotations
target: PDE10 from pig striatum (Sus scrofa); assay: Inhibition of PDE10 from pig striatum ([3H]-cAMP SPA, Methods A and B); format: biochemical; conditions: PDE10 pig

Some solved entries appear below for comparison.
[
  {
    "compound": "CCc1nc(C)c2c(C)nc3ccc(F)cc3n12",
    "measured value": "≥ 100 nM"
  },
  {
    "compound": "Cc1nc(-c2ccccc2Cl)n2c1c(N)nc1ccc(F)cc12",
    "measured value": "≤ 10 nM"
  },
  {
    "compound": "Cc1nc(C2CCCCC2)n2c1c(Cl)nc1ccc(F)cc12 [Intermediate B7]",
    "measured value": "10 to 100 nM"
  }
]

Q: Sample CCc1nc(C)c2c(N)nc3ccc(N4CCCCC4)cc3n12 — what was its IC50?
A: ≥ 100 nM

Q: Sample Cc1nc(C2CCCCC2)n2c1c(C)nc1ccc(F)cc12 — what was its IC50?
A: 10 to 100 nM

Q: Sample CCCc1nc(C)c2c(C)nc3cc(OCc4ccc5ccccc5n4)ccc3n12 — what was its IC50?
A: ≤ 10 nM

Q: Sample Cc1ccccc1-c1nc(C)c2c(C)nc3c(OC(F)F)cc(OC(F)F)cc3n12 — what was its IC50?
A: ≤ 10 nM

Q: Sample Cc1nc(C2CCCCC2)n2c1c(C)nc1ccc(OCC3CC3)cc12 — what was its IC50?
A: 10 to 100 nM

Q: Sample CCCc1nc(C)c2c(C)nc3ccc(OCC4CC4)cc3n12 — what was its IC50?
A: 10 to 100 nM

Q: Sample Cc1nc(-c2ccccc2Cl)n2c1c(C)nc1ccc(F)cc12 — what was its IC50?
A: ≤ 10 nM

Q: Sample Cc1ccsc1-c1nc(C)c2c(C)nc3ccc(F)cc3n12 — what was its IC50?
A: 10 to 100 nM

Q: Sample CCc1nc(C)c2c(Cl)nc3ccc(F)cc3n12 [Intermediate B5] — what was its IC50?
A: 10 to 100 nM

Q: Sample Cc1ccccc1-c1nc(C)c2c(C)nc3ccc(F)cc3n12 — what was its IC50?
A: ≤ 10 nM

Q: Sample CCc1nc(C)c2c(C)nc3ccc(N4CCCCC4)cc3n12 — what was its IC50?
A: 10 to 100 nM

Q: Sample Cc1nc(-c2ccccc2Cl)n2c1c(Cl)nc1ccc(F)cc12 [Intermediate B8] — what was its IC50?
A: ≤ 10 nM
